# targetUnderTest: human TLR7 (Homo sapiens (Human), UniProt Q9NYK1)
# Sequence (Q9NYK1 27-1049): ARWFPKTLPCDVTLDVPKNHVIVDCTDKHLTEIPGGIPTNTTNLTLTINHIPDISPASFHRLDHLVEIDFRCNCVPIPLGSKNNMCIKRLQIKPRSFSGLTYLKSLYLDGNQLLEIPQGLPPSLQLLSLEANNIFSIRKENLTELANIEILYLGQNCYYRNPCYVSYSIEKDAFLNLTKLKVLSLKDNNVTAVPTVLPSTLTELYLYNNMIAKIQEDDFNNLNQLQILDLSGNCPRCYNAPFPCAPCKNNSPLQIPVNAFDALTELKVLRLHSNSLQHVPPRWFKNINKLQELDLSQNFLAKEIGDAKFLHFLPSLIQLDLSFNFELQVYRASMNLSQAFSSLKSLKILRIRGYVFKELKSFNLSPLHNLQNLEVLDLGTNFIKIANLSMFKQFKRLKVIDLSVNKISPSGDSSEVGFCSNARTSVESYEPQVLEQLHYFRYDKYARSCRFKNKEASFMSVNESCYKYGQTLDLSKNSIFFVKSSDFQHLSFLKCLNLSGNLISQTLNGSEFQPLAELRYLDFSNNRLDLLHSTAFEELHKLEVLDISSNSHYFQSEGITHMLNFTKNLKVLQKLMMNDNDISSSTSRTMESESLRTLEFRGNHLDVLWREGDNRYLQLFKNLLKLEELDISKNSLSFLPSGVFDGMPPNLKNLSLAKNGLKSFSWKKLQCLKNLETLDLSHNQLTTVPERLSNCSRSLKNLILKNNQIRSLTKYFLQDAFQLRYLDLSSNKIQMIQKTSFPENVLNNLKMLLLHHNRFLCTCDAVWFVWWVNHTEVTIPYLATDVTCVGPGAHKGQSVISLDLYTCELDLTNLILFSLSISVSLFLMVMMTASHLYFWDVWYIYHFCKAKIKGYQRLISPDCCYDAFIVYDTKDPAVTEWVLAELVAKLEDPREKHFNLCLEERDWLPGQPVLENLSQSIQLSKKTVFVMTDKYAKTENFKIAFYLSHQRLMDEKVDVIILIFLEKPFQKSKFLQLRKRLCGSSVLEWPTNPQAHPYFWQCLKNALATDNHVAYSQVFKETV
# method: TLR7 inhibition reporter assay (HEK-Blue SEAP)
# Assay type: cell-based
# details: HEK-Blue human TLR7 cells, gardiquimod 7.5 μM
pIC50: −log10 of the molar value.
Recorded measurements of pIC50, one per entry

{"compound": "Cc1c(-c2[nH]c3ccc(N4CCN(C(=O)C5(N(C)C)CC5)CC4)nc3c2C(C)C)cn2ncnc2c1C [Example 854]", "pIC50": 7.96}
{"compound": "Cc1c(-c2[nH]c3ccc(N4CC5(C4)CN(C4COC4)C5)nc3c2C(C)C)cn2ncnc2c1C [Example 1011]", "pIC50": 7.96}
{"compound": "Cc1c(-c2[nH]c3ccc(N4CCN(C(=O)CN5CC6(COC6)C5)[C@H](C)C4)nc3c2C(C)C)cn2ncnc2c1C [Example 940]", "pIC50": 8.77}
{"compound": "Cc1c(-c2[nH]c3ccc(N4CC5(C4)CN(C(C)C)C5)nc3c2C(C)C)cn2ncnc2c1C [Example 1003]", "pIC50": 8.74}
{"compound": "CC(C)c1c(-c2cn(C)c3ncccc23)[nH]c2ccc(C3CCC(N4CC5(COC5)C4)CC3)nc12 (stereo not shown) [Example 1036]", "pIC50": 8.89}
{"compound": "Cc1c(-c2[nH]c3ccc(N4CCN(C(=O)CN(C)C(C)(C)C)[C@H](C)C4)nc3c2C(C)C)cn2ncnc2c1C [Example 944]", "pIC50": 8.51}
{"compound": "Cc1c(-c2[nH]c3ccc(N4C[C@@H](C)N[C@@H](C)C4)nc3c2C(C)C)cn2ncnc2c1C [Example 976]", "pIC50": 8.60}

* * *

# targetUnderTest: human TLR7 (Homo sapiens (Human), UniProt Q9NYK1)
# method: TLR7 inhibition reporter assay (HEK-Blue SEAP)
# Type: cell-based
# details: HEK-Blue cells overexpressing human TLR7, gardiquimod 7.5 μM stimulation, SEAP reporter
Recorded measurements of IC50, one per entry

{"compound": "Cc1c(-c2[nH]c3ccc(C4CCC(N5CCC[C@@H]5CO)CC4)nc3c2C(C)C)cn2ncnc2c1C (stereo partly shown) [Example 377]", "targetUnderTest": "human TLR7 (Homo sapiens (Human), UniProt Q9NYK1)", "IC50 (nM)": 2.1}
{"compound": "COc1cc(-c2[nH]c3ccc(C4CCC(=O)CC4)nc3c2C(C)C)cn2ncnc12", "targetUnderTest": "human TLR7 (Homo sapiens (Human), UniProt Q9NYK1)", "IC50 (nM)": 5.2}
{"compound": "Cc1c(-c2[nH]c3ccc(N4CCNCC4)nc3c2C(C)C)cn2ncnc2c1C", "targetUnderTest": "human TLR7 (Homo sapiens (Human), UniProt Q9NYK1)", "IC50 (nM)": 1.7}
{"compound": "CC(C)c1c(-c2cn(C)c3ncccc23)[nH]c2ccc(C3CCC(NC4COC4)CC3)nc12 (stereo not shown) [Example 185]", "targetUnderTest": "human TLR7 (Homo sapiens (Human), UniProt Q9NYK1)", "IC50 (nM)": 38}
{"compound": "Cc1c(-c2[nH]c3ccc(N4CCC(NC5CCC5)CC4)nc3c2C(C)C)cn2ncnc2c1C", "targetUnderTest": "human TLR7 (Homo sapiens (Human), UniProt Q9NYK1)", "IC50 (nM)": 7.4}
{"compound": "Cc1cc(-c2[nH]c3ccc(C4CCC(N5CC6(COC6)C5)CC4)nc3c2C(C)C)cn2ncnc12 (stereo not shown) [Example 288]", "targetUnderTest": "human TLR7 (Homo sapiens (Human), UniProt Q9NYK1)", "IC50 (nM)": 28}
{"compound": "COc1cc(-c2[nH]c3ccc(N4CCN(C5CCOC5)CC4)nc3c2C(C)C)cn2ncnc12 (stereo not shown)", "targetUnderTest": "human TLR7 (Homo sapiens (Human), UniProt Q9NYK1)", "IC50 (nM)": 7.3}
{"compound": "Cc1c(-c2[nH]c3ccc(N4CCC(NC5COC5)C4)nc3c2C(C)C)cn2ncnc2c1C (racemic)", "targetUnderTest": "human TLR7 (Homo sapiens (Human), UniProt Q9NYK1)", "IC50 (nM)": 33}
{"compound": "Cc1cc(-c2[nH]c3ccc(C4CCC(NC5COC5)CC4)nc3c2C(C)C)cc(C)n1 (stereo not shown) [Example 282]", "targetUnderTest": "human TLR7 (Homo sapiens (Human), UniProt Q9NYK1)", "IC50 (nM)": 0.32}
{"compound": "COc1cc(-c2[nH]c3ccc(N4CCN(CC5CCOC5)CC4)nc3c2C(C)C)cn2ncnc12 (stereo not shown)", "targetUnderTest": "human TLR7 (Homo sapiens (Human), UniProt Q9NYK1)", "IC50 (nM)": 2.2}
{"compound": "Cc1c(-c2[nH]c3ccc(C4CCC(N(C)CCC#N)CC4)nc3c2C(C)C)cn2ncnc2c1C (stereo not shown) [Example 361]", "targetUnderTest": "human TLR7 (Homo sapiens (Human), UniProt Q9NYK1)", "IC50 (nM)": 0.79}
{"compound": "Cc1c(-c2[nH]c3ccc(N4CC5(CCN(CCS(C)(=O)=O)CC5)C4)nc3c2C(C)C)cn2ncnc2c1C", "targetUnderTest": "human TLR7 (Homo sapiens (Human), UniProt Q9NYK1)", "IC50 (nM)": 22}
{"compound": "Cc1c(-c2[nH]c3ccc(C4CCC(N(C)C5COC5)CC4)nc3c2C(C)C)cn(C)c(=O)c1C (stereo not shown) [Example 254]", "targetUnderTest": "human TLR7 (Homo sapiens (Human), UniProt Q9NYK1)", "IC50 (nM)": 72}
{"compound": "Cc1c(-c2[nH]c3ccc(C4CCC(NC5COC5)CC4)nc3c2C(C)C)cn2ncnc2c1C (stereo not shown) [Example 350]", "targetUnderTest": "human TLR7 (Homo sapiens (Human), UniProt Q9NYK1)", "IC50 (nM)": 0.72}
{"compound": "CNC1CCC(c2nc3c(C(C)C)c(-c4cc(OC)c5ncnn5c4)[nH]c3cc2F)CC1 (stereo not shown) [Example 347]", "targetUnderTest": "human TLR7 (Homo sapiens (Human), UniProt Q9NYK1)", "IC50 (nM)": 0.27}
{"compound": "Cc1c(-c2[nH]c3ccc(N4CCCC(NC5COC5)C4)nc3c2C(C)C)cn2ncnc2c1C (stereo not shown)", "targetUnderTest": "human TLR7 (Homo sapiens (Human), UniProt Q9NYK1)", "IC50 (nM)": 7.5}

Cited source for all entries: patent US10544143B2
